Target: human IRAK4 FL (Full Length) (Homo sapiens (Human))
Test: IRAK4 Enzymatic DELFIA Assay, Protocol A
Type: biochemical
Conditions: human IRAK4 FL, 0.6 mM ATP (KM); read-out: IRAK4 DELFIA Protocol A IC50
Quantity kind: IC50 (nM)

INSERT INTO results (structure_string, quantity_kind, readout_value) VALUES
  ('COc1cc2c(OC[C@@H]3C[C@](F)(CF)C(=O)N3)nccc2cc1C(N)=O', 'IC50', 671),
  ('COc1cc2c(OC[C@H]3NC(=O)CC34CC4)nccc2cc1C(N)=O', 'IC50', 14),
  ('COc1cc2c(OC[C@H]3NC(=O)[C@@H]4[C@@H](CF)[C@@H]43)ccnc2cc1C(N)=O', 'IC50', 0.3),
  ('CC[C@H]1[C@@H](COc2nccc3cc(C(N)=O)c(OC)cc23)NC(=O)[C@@H]1O', 'IC50', 0.5);

====

Target: human IRAK4 FL (Full Length) (Homo sapiens (Human), UniProt Q9NWZ3)
Sequence (Q9NWZ3 whole entry): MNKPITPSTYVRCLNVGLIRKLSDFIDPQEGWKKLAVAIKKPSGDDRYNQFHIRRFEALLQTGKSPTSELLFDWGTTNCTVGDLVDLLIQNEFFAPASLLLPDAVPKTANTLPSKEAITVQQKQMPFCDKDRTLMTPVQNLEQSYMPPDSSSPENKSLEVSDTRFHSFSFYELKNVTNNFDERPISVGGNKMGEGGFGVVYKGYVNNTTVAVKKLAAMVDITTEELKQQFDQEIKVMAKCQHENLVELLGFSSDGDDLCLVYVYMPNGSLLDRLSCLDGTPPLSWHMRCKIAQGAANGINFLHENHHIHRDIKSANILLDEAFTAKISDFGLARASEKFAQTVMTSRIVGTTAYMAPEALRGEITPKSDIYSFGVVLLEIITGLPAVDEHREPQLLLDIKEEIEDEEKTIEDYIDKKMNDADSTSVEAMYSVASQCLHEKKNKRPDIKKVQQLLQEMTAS
Experiment: IRAK4 Enzymatic DELFIA Assay, Protocol A
Assay type: biochemical
Conditions: human IRAK4 FL, 0.6 mM ATP (KM); read-out: IRAK4 DELFIA Protocol A IC50
Quantity kind: IC50

INSERT INTO results (molecule, quantity_kind, readout_value) VALUES
  ('CC(C)Oc1cc2c(OC[C@@H]3C[C@H](C)C(=O)N3)nccc2cc1C(N)=O [Example 125]', 'IC50', '40 nM'),
  ('CC(C)Oc1cc2c(OC[C@@H]3CN(C)C(=O)N3)nccc2cc1C(N)=O [Example 185]', 'IC50', '116 nM'),
  ('CC(C)Oc1cc2c(OC[C@@H]3C[C@H](F)C(=O)N3)nccc2cc1C(N)=O [Example 145]', 'IC50', '0.4 nM'),
  ('CC[C@@H]1[C@H](F)C(=O)N[C@@H]1COc1ncc(F)c2cc(C(N)=O)c(OC)cc12 [Example 360]', 'IC50', '0.1 nM'),
  ('COc1cc2c(O[C@@H](C)[C@@H]3CCC(=O)N3)nccc2cc1C(N)=O [Example 354]', 'IC50', '2890 nM'),
  ('COc1cc2c(OC[C@H]3NC(=O)C[C@H]3C)cccc2cc1C(N)=O [Example 216]', 'IC50', '0.4 nM'),
  ('CC[C@@]1(F)C[C@@H](COc2nccc3cc(C(N)=O)c(OC(C)C)cc23)NC1=O [Example 132]', 'IC50', '188 nM'),
  ('COc1cc2c(OC[C@H]3NC(=O)[C@@]4(F)[C@@H]3[C@@H]4C)ccnc2cc1C(N)=O [Example 323]', 'IC50', '0.2 nM'),
  ('CC[C@@H]1C[C@@H](COc2nccc3cc(C(N)=O)c(OC(C)C)cc23)NC1=O [Example 136]', 'IC50', '7.8 nM'),
  ('CC[C@H]1[C@@H](COc2nccc3cc(C(N)=O)c(OC)cc23)NC(=O)[C@@H]1OC [Example 343]', 'IC50', '41 nM'),
  ('COc1cc2c(OC[C@H]3NC(=O)O[C@H]3C)nccc2cc1C(N)=O [Example 236]', 'IC50', '8.4 nM'),
  ('CC[C@@H]1[C@H](N)C(=O)N[C@@H]1COc1nccc2cc(C(N)=O)c(OC)cc12 [Example 356]', 'IC50', '115 nM'),
  ('COc1cc2c(OC[C@H]3NC(=O)CC3(C)C)nccc2cc1C(N)=O [Example 221]', 'IC50', '54 nM'),
  ('C[C@@H]1[C@H](F)C(=O)N[C@@H]1COc1nccc2cc(C(N)=O)c(OC3CC3)cc12 [Example 281]', 'IC50', '11 nM');
